# target: H2-K^b (Mus musculus)
# Construct: made in house
# experimentNotes: MHC peptide binding assay, purified H2-K^b
# conditionDescription: binding to MHC Class I molecules with very high affinity (bound), discussion statement, very high affinity
Ends that are not written are not given here.
readoutLabel: IC50

Write down the reported IC50 (system: H2-K^b (Mus musculus)) of SNFVFAGI [mp68 (547-554, 5F)] < 1 nM

###

# target: H2-K^b (Mus musculus)
# Construct: made in house
# Sequence (P01901 22-369): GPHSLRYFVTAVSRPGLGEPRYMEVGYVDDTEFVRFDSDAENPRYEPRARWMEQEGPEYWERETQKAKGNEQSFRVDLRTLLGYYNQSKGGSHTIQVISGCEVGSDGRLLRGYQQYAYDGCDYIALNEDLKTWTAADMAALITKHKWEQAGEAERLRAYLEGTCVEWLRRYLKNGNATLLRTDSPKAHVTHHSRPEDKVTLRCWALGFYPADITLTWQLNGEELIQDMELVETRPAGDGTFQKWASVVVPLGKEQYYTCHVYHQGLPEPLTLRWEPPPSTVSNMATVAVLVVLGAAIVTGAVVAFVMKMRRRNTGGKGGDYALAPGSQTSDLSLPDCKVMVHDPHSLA
# Sequence (P01887 21-119 partner): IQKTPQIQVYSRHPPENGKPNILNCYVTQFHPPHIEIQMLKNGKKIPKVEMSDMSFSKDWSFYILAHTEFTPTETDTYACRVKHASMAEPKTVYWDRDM
# experimentNotes: MHC peptide binding assay, purified H2-K^b
# conditionDescription: Affinity of peptide for MHC (IC50), MHC K^b; purified H2-K^b; geometric mean of 5 or more experiments
Ends that are not written are not given here.
readoutLabel: IC50

            orderedresidues  endpointresult
0  SNFVSAGI [p68 (547-554)]           22 nM

# return recorded IC50 for entry SNFVFAGI [mp68 (547-554, 5F)] 0.48 nM

The origin of these recorded values is paper PMC5354938.
